Origin of the recorded values: PubChem BioAssay (EPA / NIEHS)

experiment: ATG_NF_kB_CIS: Attagene CIS-FACTORIAL HepG2 Assay for human Nuclear Factor Kappa B (NF-kB) (AID 2282991); conditions: HepG2 Attagene cis-factorial NF-kB reporter mRNA; actives raise or lower the signal
Active and inactive are the calls of the source. How the source made its calls: active means hit-call score of the fitted dose curve at least 0.9, where 1 is the maximum; inactive means score below 0.9.
MEASURE_NAME: AC50

>>> df
                                   molecule  observed_measurement
0  CO[C@@H]1COCC[C@@H]1N[C@@H]1CC[C@@](C(=O)N2CCc3ncc(C(F)(F)F)cc3C2)(C(C)C)C1              inactive
1                        C/C=C/c1ccc(OC)cc1              inactive
2  CS(=O)(=O)c1ccc([C@@H](C[C@H]2CCC(=O)C2)C(=O)Nc2cnccn2)cc1Cl              inactive
3  O=C(N[C@@H](c1ccccc1)[C@@H]1CCCCN1)c1cccc(C(F)(F)F)c1Cl      53.2 µM (active)
4                            CCCCCCCC(=O)OC              inactive

Field request: AC50 | item: Cn1cnc2c1c(=O)[nH]c(=O)n2C
inactive

Input COC(=O)CCCC(=O)OC
inactive

* * *

experiment: BSK_CASM3C_SRB: Viability Assessment in the BioMAP Diversity Plus: CASM3C Assay (AID 2283050); details: primary human coronary artery smooth muscle cells;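 further: total protein by SRB staining as cytotoxicity measure in parallel cultures; cells exposed to compound for 24 h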
The source made the active and inactive calls. The calls were made as follows: active = hit-call score of the fitted dose curve at least 0.9, where 1 is the maximum; inactive = score below 0.9.
Please answer using one outcome listed in class 1 (active), class 0 (inactive)

Look over these answered cases.
In [3]: df
Out[3]:
                  compound_structure_string  assigned_label
0                         CCCCCCCCCCCCCCCCO         class 0
1  Cc1cc(SC2=C(O)C[C@@](CCc3ccc(N)cc3)(C(C)C)OC2=O)c(C(C)(C)C)cc1CO         class 0
2  CC(=O)O[C@]1(C(C)=O)CC[C@H]2[C@@H]3C=C(Cl)C4=CC(=O)[C@@H]5C[C@@H]5[C@]4(C)[C@H]3CC[C@@]21C         class 0
3  CC(C)OC(=O)C(C)(C)Oc1ccc(C(=O)c2ccc(Cl)cc2)cc1         class 0
4  Cc1cn([C@H]2C=C[C@@H](CO)O2)c(=O)[nH]c1=O         class 0

Write down the call the test reported for this molecule. Item: CC1(C)C(=O)NC(=O)N1CO
class 0

Input N[C@@H](Cc1c[nH]c2ccccc12)C(=O)O
class 0

Input COc1ccc(OC(F)(F)F)cc1CN[C@H]1CCCN[C@H]1c1ccccc1
class 1

* * *

assay: ACEA_ER_AUC_viability: ACEA Biosciences xCELLigence Real-Time Cell Analysis on Estrogen Receptor Agonism for Viability (AID 2283782);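 further: continuous compound exposure with impedance area under curve over 80 h; hit means loss of impedance signal meaning reduced cell growth or viability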
Inconclusive results are not listed. Active and inactive are the calls of the source. How the source made its calls: active means hit-call score of the fitted dose curve at least 0.9, where 1 is the maximum; inconclusive means response in the unintended direction; inactive means score below 0.9.
Please answer using one outcome listed in Yes = active, No = inactive

Look over these answered cases.
In [3]: df
Out[3]:
                                   compound  assigned_label
0  CSc1ccc(Oc2ccc(S(N)(=O)=O)cc2CN(C)C)cc1C             Yes
1                        C/C=C/c1ccc(OC)cc1              No
2                        S=c1[nH]c2ccccc2s1             Yes

Write down the call the test reported for this compound. Item: CN(C)CCCN(C)CCCN(C)C
No

Input CC(=O)S[C@H](C(=O)N[C@H]1Cc2ccccc2[C@H]2CCC[C@@H](C(=O)O)N2C1=O)C(C)C
No

Input Oc1ccc(O)cc1
Yes

Input Nc1nc(=S)c2[nH]cnc2[nH]1
Yes

Input COC(=O)CCC(=O)OC
No

Input O=NO
No

Input CC(N)=O
No

Input O=C(O)CC(O)(CC(=O)O)C(=O)O
No

Input O=C(N[C@@H](c1ccccc1)[C@@H]1CCCCN1)c1cccc(C(F)(F)F)c1Cl
Yes
